Hey, just so you know, these numbers are from patent US11369565B2.

- Tested on: rabbit skeletal myofibrils (approximately 90% fast fibers)
- Assay Notes: Activation of fast skeletal myofibrils (PUMA coupled-enzyme ATPase assay at pCa25)
- Type: biochemical
- Condition Parameters: concentration at which the compound increased the enzymatic activity by 40%; calcium at pCa25; PM12 buffer pH 6.8
Assay Metric: Mean AC1.4

// worked examples, Mean AC1.4 included
COc1ccc(C)nc1-c1cnc(NC[C@]2(c3ncccc3F)C[C@H](F)C2)nc1 = C (C=10-20 uM)
CC(C)(Nc1ncc(-c2cnc3c(c2)NC(=O)C3)cn1)c1ncccc1Cl = D (D=>20 uM)
NC(=O)c1ccc(F)c(-c2cnc(NCC3(c4ccccn4)CCC3)nc2)c1 = A (A=<1 uM)
CC(=O)NCc1cnc(-c2cnc(NCC3(c4ncccc4F)CCC3)nc2)s1 = B (B=1-10 uM)
CC(C)(Nc1ncc(-c2cn3cc(C(N)=O)ccc3n2)cn1)c1ncccc1Cl = C (C=10-20 uM)

Output Mean AC1.4 of NC(=O)c1cccc(-c2cnc(NCC3(c4ncccc4F)CC(F)C3)nc2)c1 (stereo not drawn)
A (A=<1 uM)

Output Mean AC1.4 of NC(=O)c1cccc(-c2cnc(N)nc2)c1 [3-(2-aminopyrimidin-5-yl)benzamide]
D (D=>20 uM)

Output Mean AC1.4 of CC(C)(Nc1ncc(-c2cc(C(N)=O)ncn2)cn1)c1ncccc1Cl
B (B=1-10 uM)

Output Mean AC1.4 of CC(C)(Nc1ncc(-n2cc(C(=O)NCCC(N)=O)cn2)cn1)c1ncccc1Cl
D (D=>20 uM)

Output Mean AC1.4 of NC(=O)c1cnc(-c2cnc(NCC3(c4ccccn4)CCC3)nc2)s1
B (B=1-10 uM)

Output Mean AC1.4 of COC(=O)c1cnc(NCC(C)(C)c2ccc(F)cc2)nc1
D (D=>20 uM)

Output Mean AC1.4 of Nc1cncc(-c2cnc(NC[C@]3(c4ncccc4F)C[C@H](F)C3)nc2)n1
B (B=1-10 uM)
